substrate: NP of A/Brisbane/59/2007(H1N1/H1B) (influenza A virus A/Brisbane/59/2007 (H1N1)); assay: ELISA on virus-infected fixed MDCK cells
In this section, each of the binders is paired with its reported pEC50.
Keep it numeric: pEC50 is minus log10 of the concentration in mol/L.

{"columns": ["binder", "number"],
 "data": [
  ["NP25 (antibody, V domains shown) VH: EVQLVESGGGLVQPGGSLRLSCAASGFTIGGGFIHWVRQAPGKGLEWVASIWPYWGFTYYADSVKGRFTISADTSKNTAYLQMNSLRAEDTAVYYCARGSYGYSDYWGQGTLVTVSS VL: DIQMTQSPSSLSASVGDRVTITCRAGQDVSSGVAWYQQKPGKAPKLLISWTSFLYSGVPSRFSGSGSGTDFTLTISSLQPEDFATYYCQQYYDYPITFGQGTKVEIKR", 8.32]
]}

Consider the binder shown here: NP15 (antibody, V domains shown) VH: EVQLVESGGGLVQPGGSLRLSCAASGFTISNWYIHWVRQAPGKGLEWVAGIGPYGGSTYYADSVKGRFTISADTSKNTAYLQMNSLRAEDTAVYYCARFHWDHLHGMDYWGQGTLVTVSS VL: DIQMTQSPSSLSASVGDRVTITCRASQDVDNNVAWYQQKPGKAPKLLISYSTGLYSGVPSRFSGSGSGTDFTLTISSLQPEDFATYYCQQYWNYPITFGQGTKVEIKR What is its recorded pEC50?
9.18

Where do the numbers come from? From patent US20230212554A1.
